I'd be grateful if you could share measured clearance for these entries.
- test_summary: Clearance in rat at 1 mg/kg, iv
- Assay type: ADME, organism-based
- condition_set: in vivo
One number for each entry, in mL/min/kg.

NC(=O)[C@@H]1[C@H](Nc2nc(Nc3cccc(C(=O)N4CCCC4)c3)nc3[nH]ncc23)[C@H]2C=C[C@@H]1C2; 124
NC(=O)[C@@H]1[C@H](Nc2nc(Nc3cccc(C(=O)N4CCOCC4)c3)nc3ccsc23)[C@H]2C=C[C@@H]1C2; 113

// next entry
## Task Please indicate clearance recorded for NC(=O)[C@H]1CCC[C@H]1Nc1nc(Nc2cccc(C(=O)N3CCCC3)c2)nc2ccsc12
## Result 104
